Biological target: OGA (Homo sapiens, UniProt O60502)
Construct: endogenous in cells; host or cells: HEK293 cells inducible for P301L mutant human Tau (2N4R)
Sequence (O60502 1-916): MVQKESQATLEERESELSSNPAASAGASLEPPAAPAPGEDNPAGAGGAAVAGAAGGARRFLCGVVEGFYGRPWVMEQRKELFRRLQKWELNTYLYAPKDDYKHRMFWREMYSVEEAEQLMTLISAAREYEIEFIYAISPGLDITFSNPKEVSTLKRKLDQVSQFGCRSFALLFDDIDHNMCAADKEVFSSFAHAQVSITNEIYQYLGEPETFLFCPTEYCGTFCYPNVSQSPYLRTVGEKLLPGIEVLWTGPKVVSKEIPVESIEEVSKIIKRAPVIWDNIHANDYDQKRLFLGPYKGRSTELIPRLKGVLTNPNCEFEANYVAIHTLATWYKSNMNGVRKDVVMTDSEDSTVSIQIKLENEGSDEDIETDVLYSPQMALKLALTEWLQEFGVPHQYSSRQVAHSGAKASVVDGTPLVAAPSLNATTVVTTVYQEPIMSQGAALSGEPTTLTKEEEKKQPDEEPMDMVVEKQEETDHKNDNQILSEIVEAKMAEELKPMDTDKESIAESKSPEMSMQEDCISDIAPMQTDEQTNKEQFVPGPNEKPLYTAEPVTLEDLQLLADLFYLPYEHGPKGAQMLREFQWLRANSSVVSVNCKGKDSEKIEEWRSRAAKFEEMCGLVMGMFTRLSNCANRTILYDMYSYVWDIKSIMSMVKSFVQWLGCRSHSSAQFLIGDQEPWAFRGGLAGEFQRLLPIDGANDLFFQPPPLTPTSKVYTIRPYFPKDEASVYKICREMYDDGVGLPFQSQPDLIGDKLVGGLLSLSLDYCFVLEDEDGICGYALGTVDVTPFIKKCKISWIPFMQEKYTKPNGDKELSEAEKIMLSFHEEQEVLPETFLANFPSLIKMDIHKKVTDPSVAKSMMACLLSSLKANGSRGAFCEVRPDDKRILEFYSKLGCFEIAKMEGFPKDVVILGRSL
Experiment: OGA cellular assay (ICC detection of O-GlcNAcylated proteins in HEK293 cells inducible for P301L mutant human Tau)
Assay type: cell-based
Conditions: HEK293 cells inducible for P301L mutant human Tau, 6 hours incubation; read-out: Cellular hOGA; pEC50 (converted)
measurement.label: EC50

Study these solved cases before continuing.
Cc1cc(C[C@H]2CCCN(C(C)c3ccc4c(n3)OCC(=O)N4)C2)cc(C)n1 (mixture of isomers) [Product 59] | > 1000 nM
COc1cc(NC[C@H]2CCCN(C(C)c3nc4c(cc3F)OCCO4)C2)cc(C)n1 (stereo partly drawn) | 1.58 nM
Cc1cc(OC2CCCN(C(C)c3cc4c(cc3F)OCCO4)C2)cc(C(F)(F)F)n1 (stereo not drawn) | > 1000 nM
Cc1cc(OC[C@@H]2CCCN([C@@H](C)c3ccc4c(n3)OCCO4)C2)cc(C)n1 (relative stereo) | > 1000 nM
COc1cc(OC[C@H]2CCCN(C(C)c3ccc4c(n3)OCCO4)C2)cc(C)n1 (single isomer, unassigned) | > 1000 nM

Attention now turns to another entry.
Problem: # query: EC50 of entry Cc1cc([C@H]2CCCN([C@H](C)c3ccc4c(n3)OCCO4)C2)c(F)c(C)n1 (single isomer, unassigned)
Result: > 1000 nM

From: patent US20210300943A1
